- TEST_SYSTEM: Calmodulin-1 (Homo sapiens) (UniProt P0DP23)
- TEST_METHOD_NOTES: small molecules binding calmodulin-1 with EGTA – biochemical, small-molecule microarray, Cy5-labelled CALM1, profiling panel (AID 1111);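 note: labelled calmodulin applied in Tris saline Tween buffer holding calcium plus EGTA and DTT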
- MEASUREMENT_CONDITIONS: Cy5-CALM1 binding fluorescence, higher = more signal
composite z-score listing for selected compounds.
EXPERIMENTAL_READOUT: composite z-score

- C[N+](C)(C)CCCCNC(=O)[C@H]1C[C@H]2C(=O)NCC(=O)N2[C@H]1c1ccc(O)cc1: -1.08
- COC(=O)[C@H]1N=C(c2ccc(OCCCO)cc2)O[C@H]1c1ccccc1CN=[N+]=[N-]: 0.452
- C=CCNC(=O)[C@H]1[C@@H]2C(=O)O[C@@H](c3ccccc3)[C@@H](c3ccccc3)N2[C@@H](c2ccc(O)cc2)[C@]12C(=O)N(C(=O)OCCOC)c1ccc(C#CC3(O)CCCCCC3)cc12: 0.487
- CN1C(=O)C2C=CC(C(O)c3ccc(F)cc3)N(N3CCCCC3)C2C1=O (stereo unspecified): 1.72
- COc1ccc(C#Cc2ccc3c(c2)[C@]2(C(=O)N3)[C@H](c3ccc(OCCO)cc3)N3[C@H](c4ccccc4)[C@H](c4ccccc4)OC(=O)[C@H]3[C@@H]2C(=O)N2CCN(c3ncccn3)CC2)cc1: 1.91
- CCCNC(=O)[C@@]1(Sc2ccc(C)cc2)CC(=O)N(Cc2ccccc2)[C@@H]1c1ccc(CO)cc1I: -0.296
- C[C@]12C(=O)N(CCCCCO)[C@@H]3C(=O)N(c4ccc(Cl)cc4)CC=CC31O[C@@H]1/C=C\CCCOC(=O)C12 (stereo partly specified): -0.811
- O=C1C[C@@](C(=O)NCc2ccccc2)(c2ccc([N+](=O)[O-])cc2)[C@@H](c2ccc(CO)cc2I)N1C1CCCCC1: 0.261
- C=CC[C@]1(C(=O)N2CCOCC2)N=C(c2ccc(OCCCO)cc2)O[C@H]1c1ccccc1CN=[N+]=[N-]: 1.84
- CN1C(=O)C2C=CC(C(O)C3CCCCC3)N(N(c3ccccc3)c3ccccc3)C2C1=O (stereo unspecified): 0.142
- Cc1ccc(F)cc1S(=O)(=O)N[C@@H]1CCN(C(=O)c2ccc(OC(C)C)cc2)C1: 0.237
- C=C(CCCC)/C(=C/C[C@H](OC(=O)c1ccncc1)c1ccc(CO)o1)c1cc(C(=O)OC)ccc1OC: 0.786
- CN(C)C(=O)[C@@]1(Cc2ccccc2N=[N+]=[N-])N=C(c2ccc(OCCCO)cc2)O[C@H]1c1ccccc1N=[N+]=[N-]: 1.43
- CC(C)C(CO)N1C(=O)[C@@H]2[C@H]3C(=O)OCC=C[C@H]3OC23C=CCN(Cn2nnc4ccccc42)C(=O)[C@@H]13 (stereo partly specified): -0.323
- C=C(CCCC)/C(=C/C[C@@H](OC(=O)c1ccncc1)c1ccccc1OCCO)c1cc(C(=O)OC)ccc1OC: -0.154
- CC(=O)NCCCC[C@@H]1NC(=O)[C@@H]2C[C@H](C(=O)NCCCC[N+](C)(C)C)[C@H](c3cccc(OCCO)c3)N2C1=O: 0.601
